biological target: D(2) dopamine receptor (Rattus norvegicus); test: Binding affinity at dopamine D2 receptor in rat striatal membranes
Sequence (P61169 whole entry): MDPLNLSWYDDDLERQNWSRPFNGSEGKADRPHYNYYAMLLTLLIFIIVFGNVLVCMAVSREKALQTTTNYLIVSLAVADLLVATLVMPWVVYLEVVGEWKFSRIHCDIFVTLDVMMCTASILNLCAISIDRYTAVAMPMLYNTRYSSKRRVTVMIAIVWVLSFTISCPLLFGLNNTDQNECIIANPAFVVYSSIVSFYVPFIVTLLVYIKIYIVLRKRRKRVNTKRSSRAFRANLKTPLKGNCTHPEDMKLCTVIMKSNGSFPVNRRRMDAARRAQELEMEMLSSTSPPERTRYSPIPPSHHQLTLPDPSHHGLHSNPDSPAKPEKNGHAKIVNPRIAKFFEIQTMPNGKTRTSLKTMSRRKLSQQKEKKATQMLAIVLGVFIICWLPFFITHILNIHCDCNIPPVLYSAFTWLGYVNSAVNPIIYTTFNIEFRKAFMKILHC
Reported pKi values follow for various compounds
# log scale: pKi equals minus log10 of the concentration in mol/L

S=c1[nH]c2ccc(OCCCN3CCN(c4ccccc4)CC3)cc2[nH]1 : 7.38
COc1ccccc1N1CCN(CCCOc2ccc3[nH]cnc3c2)CC1 : 8.06
COc1ccccc1N1CCN(CCCOc2ccc3[nH]c(=S)[nH]c3c2)CC1 : 8.77
FC(F)(F)c1cccc(N2CCN(CCCOc3ccc4[nH]c(=S)[nH]c4c3)CC2)c1 : 6.44
FC(F)(F)c1cccc(N2CCN(CCCOc3ccc4[nH]cnc4c3)CC2)c1 : 7.82

Next:
Q: Requested read-out: pKi. Entry: c1ccc(N2CCN(CCCOc3ccc4[nH]cnc4c3)CC2)cc1
Ans: 7.12
